# credit: paper PMC9169922

Could you please report measured pKd for the items listed next?
molecular target: DNA polymerase alpha catalytic domain (PolαCD) (human, UniProt P09884 338-1250); assay: BLI
Sequence (P09884 338-1250): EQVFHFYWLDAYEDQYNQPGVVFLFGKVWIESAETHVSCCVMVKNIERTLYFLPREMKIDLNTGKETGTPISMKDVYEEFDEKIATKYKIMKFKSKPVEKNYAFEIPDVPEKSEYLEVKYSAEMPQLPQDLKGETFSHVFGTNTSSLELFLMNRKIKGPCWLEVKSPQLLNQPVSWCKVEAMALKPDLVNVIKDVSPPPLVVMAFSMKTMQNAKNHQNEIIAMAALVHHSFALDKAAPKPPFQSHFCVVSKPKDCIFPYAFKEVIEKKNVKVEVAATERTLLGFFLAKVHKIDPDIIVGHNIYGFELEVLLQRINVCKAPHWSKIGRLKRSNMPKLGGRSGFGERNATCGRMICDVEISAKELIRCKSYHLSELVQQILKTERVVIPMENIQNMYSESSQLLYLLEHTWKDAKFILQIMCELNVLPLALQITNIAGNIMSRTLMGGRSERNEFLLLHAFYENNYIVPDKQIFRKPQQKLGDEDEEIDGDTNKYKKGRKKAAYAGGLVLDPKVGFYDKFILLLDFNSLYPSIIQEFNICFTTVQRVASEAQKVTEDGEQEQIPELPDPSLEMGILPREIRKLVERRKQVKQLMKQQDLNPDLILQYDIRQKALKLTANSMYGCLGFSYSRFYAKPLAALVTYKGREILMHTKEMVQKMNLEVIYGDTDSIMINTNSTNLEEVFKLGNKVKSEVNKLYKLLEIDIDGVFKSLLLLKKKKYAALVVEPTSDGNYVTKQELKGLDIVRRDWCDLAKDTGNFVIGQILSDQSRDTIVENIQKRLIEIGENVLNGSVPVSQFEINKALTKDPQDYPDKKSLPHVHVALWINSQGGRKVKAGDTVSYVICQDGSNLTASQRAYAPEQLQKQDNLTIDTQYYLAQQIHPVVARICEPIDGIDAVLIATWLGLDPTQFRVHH
Just the number, please; pKd means minus log10 of the concentration in mol/L.

Which pKd is listed for G-C template:primer (matched) (dsDNA, primer 3'-terminal dideoxycytidine) DNA 1: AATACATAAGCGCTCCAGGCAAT DNA 2: GCCTGGAGCGC ?
7.39

Which pKd is listed for A-C mismatch template:primer (dsDNA, primer 3'-terminal dideoxycytidine) DNA 1: AATACATAAACGCTCCAGGCAAT DNA 2: GCCTGGAGCGC ?
7.90

Which pKd is listed for C-C mismatch template:primer (dsDNA, primer 3'-terminal dideoxycytidine) DNA 1: AATACATAACCGCTCCAGGCAAT DNA 2: GCCTGGAGCGC ?
7.93

Which pKd is listed for T-C mismatch template:primer (dsDNA, primer 3'-terminal dideoxycytidine) DNA 1: AATACATAATCGCTCCAGGCAAT DNA 2: GCCTGGAGCGC ?
7.85
